Tested on: ZAK
PROTOCOL_CONDITIONS: concentration: 1 μM, replicates: in singlicate; n = 1;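 also: KINOMEscan kinase panel screen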
MEASURED_PARAMETER: %Inh (%)
Numbers only, in %.

| SMI | NUMERIC_RESULT |
| --- | --- |
| Cc1ccc(Oc2ccc(Nc3ncnc4cc[nH]c34)cc2C)cn1 | 5 |

Please report %Inh for every entry that follows.
1. Cc1ccc(-c2ccc3c(ccc4sc5c(c43)NC[C@@H](C)N=C5N(C)C)n2)cn1
2. COc1cccc(-n2cnc3c(N)ncnc32)c1
3. Cc1nn2c(=O)cc(N3CCOCC3)nc2n1Cc1cccc(Cl)c1Cl
4. CCc1nc(-c2cccc(C)c2)c(-c2ccncc2)s1

Result:
0
42
9
0

====

Test system: OSR1
Construct: gene OXSR1
PROTOCOL_CONDITIONS: concentration: 1 μM, replicates: in singlicate; n = 1
MEASURED_PARAMETER: %Inh (%)
Give bare numbers, in %.

| COMPOUND | MEASURE_UNIT | %Inh |
| --- | --- | --- |
| COc1ccc(Nc2nccc(N3CCC(NS(=O)(=O)c4ccc(NC(C)=O)cc4)C3)n2)cc1 (stereo not drawn) [GSK1379729] | % | 20 |
| O=C(Nc1ccc2c(c1)OCO2)NC1CCN(c2ccnc(NCc3ccc(F)cc3)n2)CC1 [GSK1379859] | % | 3 |
| FC(F)(F)c1ccc(-c2ncn(CCCN3CCOCC3)c2-c2ccncc2)cc1 [SB-217780] | % | 5 |
| COc1cc(OC)cc(-c2cc3cnc(N)nc3nc2NC(=O)NC(C)(C)C)c1 | % | 0 |
| Nc1n[nH]c2nnc(-c3ccccc3)c(-c3ccccc3)c12 [GW554060] | % | 9 |

With those in mind, consider the next compound.
Q: %Inh for `Cc1ccc(Oc2ccc(Nc3ncnc4cc[nH]c34)cc2C)cn1` ?
Result: 0

====

For each record, write down the corresponding %Inh.
System: CDKL3
PROTOCOL_CONDITIONS: concentration: 1 μM, replicates: in singlicate; n = 1
One number for each entry, in %.

| SMI | TARGET_OR_TEST_SYSTEM | %Inh (%) |
| --- | --- | --- |
| COc1ccc(-c2cc3c(C)nc(N)nc3n([C@H]3CC[C@H](O)CC3)c2=O)cn1 | CDKL3 | 0 |
| Nc1ncnc2c1ncn2-c1cccc(F)c1 | CDKL3 | 0 |
| COc1cc2ncn(-c3cc(OCCCc4ccccc4)c(C(N)=O)s3)c2cc1OC | CDKL3 | 0 |
| Cc1nc(N(C)[C@H]2CN(C(=O)CC#N)CC[C@H]2C)c2cc[nH]c2n1 | CDKL3 | 0 |

With those in mind, consider the next compound.
Q: %Inh for `CCc1nc(-c2cccc(C)c2)c(-c2ccncc2)s1` ?
Result: 7

====

Tested on: VEGFR2
Construct: gene KDR
PROTOCOL_CONDITIONS: concentration: 1 μM, replicates: in singlicate; n = 1
Rule: %Inh below 10% gives label 1, anything at or above gives label 0.

Use the examples below as a reference point.
| COMPOUND | CAT |
| --- | --- |
| Cl.NS(=O)(=O)c1cccc(Nc2cc(-c3ccc(F)cc3)n[nH]2)c1 | label 0 |
| CCS(=O)(=O)c1ccc(OC)c(Nc2ncc(-c3ccc(F)cc3)o2)c1.Cl | label 1 |
| COc1cc(Nc2nccc(N3CCC(NC(=O)C(C)c4ccc(Cl)cc4)C3)n2)cc(OC)c1OC (stereo not drawn) | label 1 |
| Nc1n[nH]c2ncc(-c3ccccc3)cc12 | label 0 |
| Cc1c(Cn2c(C)nn3c(=O)cc(N4CCO[C@H](C)C4)nc23)cccc1C(F)(F)F | label 1 |

Q: Take the compound `FC(F)(F)c1ccc(-c2ncn(CCCN3CCOCC3)c2-c2ccncc2)cc1` and say whether its %Inh is less than 10%.
Result: label 0

Q: Take the compound `CCC(=O)c1c(-c2ccccc2)c2cc(Cl)ccc2c(=O)n1Cc1cc(C(=O)NC2CC2)n(C)n1` and say whether its %Inh is less than 10%.
Result: label 1

Q: Take the compound `Nc1nc(-c2ccccc2F)c(-c2ccnc3ccccc23)s1` and say whether its %Inh is less than 10%.
Result: label 1

====

Tested on: CDKL1
PROTOCOL_CONDITIONS: concentration: 1 μM, replicates: in singlicate; n = 1
For each record, write down the corresponding %Inh.
Answers are plain numbers, in %.

Please report %Inh for every entry that follows.
1. Cc1ccc(-c2ccc3c(ccc4sc5c(c43)NC[C@@H](C)N=C5N(C)C)n2)cn1
2. CN(C)c1cc(-c2ccc3c(N)n[nH]c3c2)nc(N)n1 [GSK2219329]
3. COc1cc2ncn(-c3cc(OCc4ccc(S(C)(=O)=O)cc4)c(C(N)=O)s3)c2cc1OC [GW869979]
4. COc1ccc(-n2cnc3c(N)ncnc32)cc1 [SKF-97236]
5. Cc1cccc(-c2cc(-c3c[nH]nc3-c3ccccn3)ccn2)c1 [GW679395]
6. Cc1ccccc1COc1cc(-n2cnc3cc(Cl)ccc32)sc1C(N)=O [GW813349]

Result:
1. 0
2. 7
3. 0
4. 29
5. 0
6. 34

Please report %Inh for every entry that follows.
1. Nc1n[nH]c2ncc(-c3ccccc3)cc12 [SB-517081]
2. Cl.NS(=O)(=O)c1cccc(Nc2cc(-c3ccc(F)cc3)n[nH]2)c1 [GW824645]
3. CC(C)(C)c1ccc(C(=O)Nc2cn3cc(-c4ccccc4)ccc3n2)cc1

Result:
[8, 3, 29]

====

Tested on: PDGFRB
PROTOCOL_CONDITIONS: concentration: 1 μM, replicates: in singlicate; n = 1
Rule: %Inh below 7% gives TRUE, anything at or above gives FALSE.

Use the examples below as a reference point.
| COMPOUND | CAT |
| --- | --- |
| Cc1ccc(Oc2ccc(Nc3ncnc4cc[nH]c34)cc2C)cn1 | FALSE |
| CC(C)(C)c1ccc(C(=O)Nc2cn3cc(-c4ccccc4)ccc3n2)cc1 | FALSE |
| CN(C)c1cc(-c2ccc3c(N)n[nH]c3c2)nc(N)n1 | FALSE |
| Nc1nccc2scc(-c3ccc4c(c3)CCN4C(=O)Cc3ccccc3)c12 | FALSE |
| Cc1nc(N(C)[C@H]2CN(C(=O)CC#N)CC[C@H]2C)c2cc[nH]c2n1 | TRUE |

Q: Take the compound `Nc1n[nH]c2ncc(-c3ccccc3)cc12` and say whether its %Inh is less than 7%.
Result: FALSE

Q: Take the compound `CN1C(=O)C(Nc2cc(Cl)c(O)c(Cl)c2)=C(c2ccc(Cl)cc2)C1=O` and say whether its %Inh is less than 7%.
Result: TRUE

Q: Take the compound `CCS(=O)(=O)c1ccc(OC)c(Nc2ncc(-c3ccc(F)cc3)o2)c1.Cl` and say whether its %Inh is less than 7%.
Result: FALSE

Q: Take the compound `Nc1n[nH]c2nnc(-c3ccccc3)c(-c3ccccc3)c12` and say whether its %Inh is less than 7%.
Result: TRUE

Q: Take the compound COc1cc(Nc2nccc(N3CCC(NC(=O)C(C)c4ccc(Cl)cc4)C3)n2)cc(OC)c1OC (stereo not drawn) and say whether its %Inh is less than 7%.
Result: FALSE

Q: Take the compound `OCCCNc1nccc(-c2c(-c3cccc(C(F)(F)F)c3)nn3cc(C(F)(F)F)ccc23)n1` and say whether its %Inh is less than 7%.
Result: TRUE

Q: Take the compound `Cc1c(Cn2c(C)nn3c(=O)cc(N4CCO[C@H](C)C4)nc23)cccc1C(F)(F)F` and say whether its %Inh is less than 7%.
Result: FALSE

Q: Take the compound `COc1cc2ncn(-c3cc(OCc4ccncc4Br)c(C(N)=O)s3)c2cc1OC` and say whether its %Inh is less than 7%.
Result: FALSE

Q: Take the compound `COc1cc(OC)cc(-c2cc3cnc(N)nc3nc2NC(=O)NC(C)(C)C)c1` and say whether its %Inh is less than 7%.
Result: TRUE

Q: Take the compound `Cl.NS(=O)(=O)c1cccc(Nc2cc(-c3ccc(F)cc3)n[nH]2)c1` and say whether its %Inh is less than 7%.
Result: FALSE

Q: Take the compound COc1ccc(CNC(=O)NC2CCN(c3ccnc(Nc4ccc(F)cc4)n3)C2)cc1 (stereo not drawn) and say whether its %Inh is less than 7%.
Result: FALSE

Q: Take the compound `COc1cc2nccc(Nc3ccc(OCc4ccc(NC(C)=O)cc4)cc3)c2cc1OC.Cl` and say whether its %Inh is less than 7%.
Result: FALSE

====

Test system: PIM3
PROTOCOL_CONDITIONS: concentration: 1 μM, replicates: in singlicate; n = 1
For each record, write down the corresponding %Inh.
Just so you know, I need the unit written after the number.

| SMI | RESULT |
| --- | --- |
| CN1C(=O)C(Nc2cc(Cl)c(O)c(Cl)c2)=C(c2ccc(Cl)cc2)C1=O | 0% |

Please report %Inh for every entry that follows.
1. CCS(=O)(=O)c1ccc(OC)c(Nc2ncc(-c3ccc(F)cc3)o2)c1.Cl
2. COc1ccc(-c2cc3c(C)nc(N)nc3n([C@H]3CC[C@H](O)CC3)c2=O)cn1
3. Nc1ncnc2c1ncn2-c1cccc(F)c1
4. Cc1ccc(Oc2ccc(Nc3ncnc4cc[nH]c34)cc2C)cn1

Result:
0%
6%
0%
36%

meta.source: paper PMC5540273
